Origin of values: patent US8609654B1

Known 20 S ratio (const:immuno) of a selection of molecules
# Test system: chymotryptic-like activity of isolated 20S constitutive proteasome vs immunoproteasome
# EXPERIMENTAL_PROTOCOL: Enzyme kinetic assay with isolated 20S proteasome preps, EC50 ratio of CT-L activity (20S ratio)
# Type: biochemical
# APPLIED_CONDITIONS: constitutive proteasome to immunoproteasome, >1 = prefers immunoproteasome

Examples with their reported 20 S ratio (const:immuno) follow.
C[C@@H](NC(=O)OCc1ccccc1)C(=O)N[C@@H](Cc1c[nH]c2ccccc12)C(=O)N[C@@H](Cc1ccccc1)C(=O)C1(C)CO1 (stereo partly drawn): >5.0
C[C@H](NC(=O)OCc1ccccc1)C(=O)N[C@@H](Cc1ccc(C(C)(C)C)cc1)C(=O)N[C@@H](Cc1ccccc1)C(=O)C1(C)CO1 (stereo partly drawn): >2.0
CC1(C(=O)[C@H](Cc2ccccc2)NC(=O)[C@H](Cc2ccccc2)NC(=O)[C@H](CCC(N)=O)NC(=O)OCc2ccccc2)CO1 (stereo partly drawn): >2.0
C[C@@H](NC(=O)OCc1ccccc1)C(=O)N[C@@H](Cc1c[nH]c2ccccc12)C(=O)N[C@@H](Cc1ccc(O)cc1)C(=O)C1(C)CO1 (stereo partly drawn): >5.0
COc1ccc(C[C@H](NC(=O)C(C)NC(=O)OCc2ccccc2)C(=O)N[C@@H](Cc2ccccc2)C(=O)C2(C)CO2)cc1 (stereo partly drawn) [drawing 66]: >5.0

Read the next record carefully.
So what's the measured 20 S ratio (const:immuno) for this one? CC(C)C(NC(=O)OCc1ccccc1)C(=O)N[C@@H](Cc1c[nH]c2ccccc12)C(=O)N[C@@H](Cc1ccccc1)C(=O)C1(C)CO1 (stereo partly drawn) >5.0
